Tested on: human hepatocytes
Test: Metabolic stability in cryopreserved human hepatocytes
Settings: human hepatocytes, 3 uM, incubated up to one hour
ASSAY_METRIC: CLint ± SEM (μL/min/10^6 cells)
Answer with a number only, understood to be in μL/min/10^6 cells.

Previously resolved entries follow.
{"COMPOUND": "CCCC1(CCc2ccccc2)CC(O)=C(C(CC)c2cccc(N(CCOCCOCCOCCOCCOC)S(=O)(=O)c3ccc(C(F)(F)F)cn3)c2)C(=O)O1 (stereo not drawn) [mPEG5-amide-Tipranavir]", "CLint ± SEM, μL/min/10^6 cells": 3.62}
{"COMPOUND": "CCC[C@@]1(CCc2ccccc2)CC(O)=C([C@H](CC)c2cccc(N(CCOCCOCCOCCOCCOCCOCCOC)S(=O)(=O)c3ccc(C(F)(F)F)cn3)c2)C(=O)O1 [mPEG7-amide-Tipranavir]", "CLint ± SEM, μL/min/10^6 cells": 0.162}

Now look at this one.
Prompt line: Requested read-out: CLint ± SEM. Entry: CCCC1(CCc2ccccc2)CC(O)=C(C(CC)c2cccc(N(CCOCCOCCOC)S(=O)(=O)c3ccc(C(F)(F)F)cn3)c2)C(=O)O1 (stereo not drawn) [mPEG3-amide-Tipranavir]
Response line: 1.66

====

Experiment: Bi-directional permeability in Caco-2 monolayers
Settings: human, Caco-2
ASSAY_METRIC: Papp A→B
Answer with the value and then the unit.

Prompt line: # query: Papp A→B of entry CC(C)CN(C[C@@H](O)[C@H](Cc1ccccc1)NC(=O)O[C@H]1CO[C@H]2OCC[C@H]21)S(=O)(=O)c1ccc(N)cc1 [Darunavir, reference compound]
Response line: 2.55 ×10⁻⁶ cm/s

====

Target: CYP2D6 (Homo sapiens (Human), UniProt P10635)
Sequence (P10635 whole entry): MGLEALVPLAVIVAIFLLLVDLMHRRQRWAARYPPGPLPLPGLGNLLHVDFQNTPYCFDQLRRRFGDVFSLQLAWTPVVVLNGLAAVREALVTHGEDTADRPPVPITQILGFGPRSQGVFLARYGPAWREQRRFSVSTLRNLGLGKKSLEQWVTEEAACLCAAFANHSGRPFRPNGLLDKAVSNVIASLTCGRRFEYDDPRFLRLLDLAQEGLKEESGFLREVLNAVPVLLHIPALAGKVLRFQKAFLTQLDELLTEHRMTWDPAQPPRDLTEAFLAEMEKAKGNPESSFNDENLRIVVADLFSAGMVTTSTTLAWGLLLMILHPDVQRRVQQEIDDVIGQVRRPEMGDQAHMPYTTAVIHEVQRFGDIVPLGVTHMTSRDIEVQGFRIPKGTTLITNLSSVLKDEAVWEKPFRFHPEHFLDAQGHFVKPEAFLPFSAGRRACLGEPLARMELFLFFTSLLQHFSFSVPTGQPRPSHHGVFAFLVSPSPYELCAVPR
Assay: CYP450 inhibition in human liver microsomes: CYP2D6
ASSAY_METRIC: IC50 (µM)
Write it as a number; the unit µM goes unstated.

Prompt line: State the recorded IC50 for this entry: COC(=O)N[C@H](C(=O)N[C@@H](Cc1ccccc1)[C@@H](O)CN(Cc1ccc(-c2ccccn2)cc1)NC(=O)[C@@H](NC(=O)OC)C(C)(C)C)C(C)(C)C [Atazanavir, reference compound]
Response line: 14.9

====

System: CEM-SS cells
Test: CEM-SS macromolecule synthesis (tritiated precursor incorporation)
Type: cell-based
Settings: DNA synthesis
Description: Cellular macromolecule synthesis was evaluated using tritiated precursor incorporation assays. CEM-SS cells (2.5×10^3 cells/well) were cultured in the presence or absence of test compound for 7 days at 37 C, 5% CO2 in a 96-well microtiter plate. […] Incorporated radioactivity was measured using a Wallac scintillation counter.
Each record is given met if its reported Thymidine incorportation (CEM-SS) TC50 is strictly below 200 µM. Records at or above 200 µM are given not met.

Take a look at these entries with their results.
{"COMPOUND": "COCCOCCOCCOc1ccc(C[C@H](NC(=O)O[C@H]2CO[C@H]3OCC[C@H]32)C(O)CN(CC(C)C)S(=O)(=O)c2ccc(N)cc2)cc1 (some centres unmarked) [mPEG3-O-Darunavir]", "GROUP": "not met"}
{"COMPOUND": "CC(C)CN(C[C@@H](O)[C@H](Cc1ccccc1)NC(=O)O[C@H]1CO[C@H]2OCC[C@H]21)S(=O)(=O)c1ccc(N)cc1 [Darunavir, reference compound]", "GROUP": "not met"}

Prompt line: Please let me know if COCCOCCOCCOCCOCCOc1ccc(C[C@H](NC(=O)O[C@H]2CO[C@H]3OCC[C@H]32)C(O)CN(CC(C)C)S(=O)(=O)c2ccc(N)cc2)cc1 (some centres unmarked) [mPEG5-O-Darunavir] shows Thymidine incorportation (CEM-SS) TC50 below 200 µM.
Response line: met

Prompt line: Strictly below 200 µM in Thymidine incorportation (CEM-SS) TC50? COCCOCCOCCOC(=O)NC(C(=O)NC(Cc1ccccc1)C(O)CN(Cc1ccc(-c2ccccn2)cc1)NC(=O)C(NC(=O)OC)C(C)(C)C)C(C)(C)C (centres unmarked) [mono-mPEG3-Atazanavir]
Response line: not met

Prompt line: Here's an entry: COC(=O)N[C@H](C(=O)N[C@@H](Cc1ccccc1)[C@@H](O)CN(Cc1ccc(-c2ccccn2)cc1)NC(=O)[C@@H](NC(=O)OC)C(C)(C)C)C(C)(C)C [Atazanavir, reference compound] . Is its Thymidine incorportation (CEM-SS) TC50 below 200 µM?
Response line: not met
